Test system: E. faecalis ATCC 29212
protocol.details: MIC, CLSI broth microdilution (Table 1)
Format: cell-based
measurement.parameters: Enterococcus faecalis, ATCC29212; Gram positive; MHB, 37° C., 16-20 hours; read-out: MIC E. faecalis ATCC 29212
Where a name gives a salt, the structure may show the parent alone.
assay.endpoint: MIC

compound: Cc1c(-c2ccc(C(N)=O)cc2)ccn2c(=O)c(C(=O)O)cc(C3CC3)c12 [Example 36 K salt]
study.system: E. faecalis ATCC 29212
MIC: 0.032 µg/mL

# input Requested field: MIC. Item: Cc1c(N2CCC[C@H](N)C2)ccn2c(=O)c(C(=O)O)cc(C3CC3)c12 [Example 35 K salt]
# output 0.125 µg/mL

# input Entry to check: CNc1ccc(-c2ccn3c(=O)c(C(=O)O)cc(C4CC4)c3c2C)cc1 [Example 15 K salt]
# output 0.032 µg/mL

# input Entry to check: Cc1c(-c2cccc(F)c2)ccn2c(=O)c(C(=O)O)cc(C3CC3)c12 [Example 10 K salt]
# output 0.032 µg/mL

###

Test system: P. aeruginosa ATCC 27853
protocol.details: MIC, CLSI broth microdilution (Table 2)
Type: cell-based
measurement.parameters: Pseudomonas aeruginosa, ATCC27853; Gram negative; MHB, 37° C., 16-20 hours; read-out: MIC P. aeruginosa ATCC 27853
Counter-ions that a name gives are not always drawn.
MIC for assorted compounds
Answer in µg/mL, number only, no unit symbol.

Recorded results for 2 compounds are shown here.
compound: COc1c(N2C[C@@H]3CCCN[C@@H]3C2)c(F)cc2c(=O)c(C(=O)O)cn(C3CC3)c12 [Moxyfloxacin, reference compound]
MIC, µg/mL: 2

compound: Cc1ccc(-c2ccn3c(=O)c(C(=O)O)cc(C4CC4)c3c2C)cc1 [Example 33 K salt]
MIC, µg/mL: 2

# input // map Cc1c(-c2ccc(F)c(N)c2)ccn2c(=O)c(C(=O)O)cc(C3CC3)c12 [Example 8 K salt] to recorded MIC (system: P. aeruginosa ATCC 27853)
# output 2

###

MIC for assorted molecules
System: S. pneumonia ATCC 49619
protocol.details: MIC, CLSI broth microdilution (Table 1)
Assay type: cell-based
measurement.parameters: Streptococcus pneumoniae, ATCC49619; Gram positive; MHB, 37° C., 16-20 hours; read-out: MIC S. pneumonia ATCC 49619
Structures can show the parent of a compound that is named as a salt.
Answer in µg/mL, number only, no unit symbol.

molecule: Cc1c(-c2ccc(NS(C)(=O)=O)cc2)ccn2c(=O)c(C(=O)O)cc(C3CC3)c12 [Example 14 K salt]
study.system: S. pneumonia ATCC 49619
readout.unit: µg/mL
MIC: 0.125

molecule: Cc1c(-c2ccnc(F)c2)ccn2c(=O)c(C(=O)O)cc(C3CC3)c12 [Example 20 K salt]
study.system: S. pneumonia ATCC 49619
readout.unit: µg/mL
MIC: 0.25

molecule: CNc1ccc(-c2ccn3c(=O)c(C(=O)O)cc(C4CC4)c3c2C)cc1 [Example 15 K salt]
study.system: S. pneumonia ATCC 49619
readout.unit: µg/mL
MIC: 0.064

# input Requested field: MIC. Item: Cc1c(-c2ccc(C#N)c(F)c2)ccn2c(=O)c(C(=O)O)cc(C3CC3)c12 [Example 40 K salt]
# output 0.125
